experimental.system: Gal(b1-4)GlcNAc(b1-2)Man(a1-3)Man(b1-4)GlcNAc(b1-4)GlcNAc
protocol.details: glycan array binding signal (z-score within array); higher = stronger binding
assay.conditions: glycan notation: IUPAC condensed, linker removed
The sample as a whole holds a higher share of the strongest signals than the screen did.
experimental.endpoint: glycan array binding signal (z-score)

INSERT INTO measurements (binder, recorded_measurement) VALUES
  ('SynCAM (Mus musculus) (protein) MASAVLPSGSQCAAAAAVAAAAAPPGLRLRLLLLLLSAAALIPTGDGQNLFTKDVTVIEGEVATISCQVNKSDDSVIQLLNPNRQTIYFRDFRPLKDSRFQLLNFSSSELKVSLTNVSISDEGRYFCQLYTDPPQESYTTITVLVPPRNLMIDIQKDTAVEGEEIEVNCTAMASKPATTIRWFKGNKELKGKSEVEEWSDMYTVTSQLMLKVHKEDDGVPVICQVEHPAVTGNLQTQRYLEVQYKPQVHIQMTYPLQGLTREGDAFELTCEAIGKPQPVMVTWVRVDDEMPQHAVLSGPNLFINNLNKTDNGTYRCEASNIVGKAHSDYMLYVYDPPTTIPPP', -1.2);
